# TARGET OF ASSAY: T1, Recombinant human CD123 SP1 ECD-His tag protein (human, UniProt P26951 20-305)
# T1 construct: bought from R&D Systems (#301-R3/CF); biotinylated for some assays; also called rhCD123 SP1; huCD123 ECD SP1
# T1 sequence: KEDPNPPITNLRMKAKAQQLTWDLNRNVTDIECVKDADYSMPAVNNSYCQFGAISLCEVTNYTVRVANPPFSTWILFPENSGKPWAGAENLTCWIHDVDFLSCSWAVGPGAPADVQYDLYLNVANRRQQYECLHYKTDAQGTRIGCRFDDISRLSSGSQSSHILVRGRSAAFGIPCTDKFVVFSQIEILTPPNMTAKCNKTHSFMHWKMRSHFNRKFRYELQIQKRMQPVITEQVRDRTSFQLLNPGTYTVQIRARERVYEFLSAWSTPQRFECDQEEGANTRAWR
# PROTOCOL: SPR ProteOn, captured mAb
Catalogue of koff values
Give the value in s⁻¹ but do not write s⁻¹ after it.

Below: 3 binders and their reported koff.
BINDER: I3RB22 (antibody, IgG1, V domains shown, IgG1) VH: QVQLVQSGAEVKKPGSSVKVSCKASGGTFSSYAISWVRQAPGQGLEWMGGIIPIFGTANYAQKFQGRVTITADESTSTAYMELSSLRSEDTAVYYCARNLFYWADSVYLDYWGQGTLVTVSS VL: EIVLTQSPATLSLSPGERATLSCRASQSVNKWLAWYQQKPGQAPRLLIYYASNRATGIPARFSGSGSGTDFTLTISSLEPEDFAVYYCQQGIDWPRTFGQGTKVEIK
koff / s⁻¹: 0.00106
--
BINDER: I3RB21 (antibody, IgG1, V domains shown, IgG1) VH: QVQLVQSGAEVKKPGSSVKVSCKASGGTFSSYAISWVRQAPGQGLEWMGGIIPIFGTANYAQKFQGRVTITADESTSTAYMELSSLRSEDTAVYYCAREGWWGQGKFDYWGQGTLVTVSS VL: EIVLTQSPATLSLSPGERATLSCRASQSVANFLAWYQQKPGQAPRLLIYAASNRATGIPARFSGSGSGTDFTLTISSLEPEDFAVYYCQQYFHWPYTFGQGTKVEIK
koff / s⁻¹: 0.00114
--
BINDER: I3RB30 (antibody, IgG1, V domains shown, IgG1; also called 13RB30) VH: QVQLVQSGAEVKKPGSSVKVSCKASGGTFSSYAISWVRQAPGQGLEWMGWIIPIFGTANYAQKFQGRVTITADESTSTAYMELSSLRSEDTAVYYCARLVYSSDFDYWGQGTLVTVSS VL: EIVLTQSPATLSLSPGERATLSCRASQSVANWLAWYQQKPGQAPRLLIYYASNRATGIPARFSGSGSGTDFTLTISSLEPEDFAVYYCQQYDGWPRTFGQGTKVEIK
koff / s⁻¹: 0.00302

In plain terms, I3RB19 (antibody, IgG1, V domains shown, IgG1; also called 13RB19) VH: EVQLLESGGGLVQPGGSLRLSCAASGFTFSNYAMSWVRQAPGKGLEWVSGIRGNGSSTYYADSVKGRFTISRDNSKNTLYLQMNSLRAEDTAVYYCAKGGPIGARFPDYLDYWGQGTLVTVSS VL: DIQMTQSPSSLSASVGDRVTITCRASQSIGDFLNWYQQKPGKAPKLLIYYASSLQSGVPSRFSGSGSGTDFTLTISSLQPEDFATYYCQQSYSTPLTFGQGTKVEIK has a documented koff of 0.0251

In plain terms, I3RB33 (antibody, IgG1, V domains shown, IgG1) VH: QVQLVQSGAEVKKPGSSVKVSCKASGGTFSSYGISWVRQAPGQGLEWMGGIIPIFGTANYAQKFQGRVTITADESTSTAYMELSSLRSEDTAVYYCARGYWHWNYDYLDYWGQGTLVTVSS VL: EIVLTQSPATLSLSPGERATLSCRASQSVNDWLAWYQQKPGQAPRLLIYGASNRATGIPARFSGSGSGTDFTLTISSLEPEDFAVYYCQQYKRAPYTFGQGTKVEIK has a documented koff of 0.00177
